Tested on: MRC-5 cells
Assay: In vitro micronucleus (MN) assay
Format: cell-based, human
Details: IC50 values, 48 h, control 2.9 ± 0.2
Observation Type: Percentage of MN (%)
Numbers only; they are read as %.

# Substance Smiles, Observation Type, Unit Annotation, Readout Value
rows = [
    ("Clc1cccc(-c2nnc([S][Ag]([PH](c3ccccc3)(c3ccccc3)c3ccccc3)([PH](c3ccccc3)(c3ccccc3)c3ccccc3)[PH](c3ccccc3)(c3ccccc3)c3ccccc3)o2)c1", "Percentage of MN", "%", 6.8),
    ("c1ccc(-c2nnc([S][Ag]([PH](c3ccccc3)(c3ccccc3)c3ccccc3)([PH](c3ccccc3)(c3ccccc3)c3ccccc3)[PH](c3ccccc3)(c3ccccc3)c3ccccc3)o2)cc1", "Percentage of MN", "%", 4.0),
]

# lookup: Percentage of MN of `Clc1ccccc1-c1nnc([S][Ag]([PH](c2ccccc2)(c2ccccc2)c2ccccc2)([PH](c2ccccc2)(c2ccccc2)c2ccccc2)[PH](c2ccccc2)(c2ccccc2)c2ccccc2)o1`
4.9

Quick check: Percentage of MN of `Fc1ccc(-c2nnc([S][Ag]([PH](c3ccccc3)(c3ccccc3)c3ccccc3)([PH](c3ccccc3)(c3ccccc3)c3ccccc3)[PH](c3ccccc3)(c3ccccc3)c3ccccc3)o2)cc1` ?
3.8

Data request, read-out Percentage of MN, for `Fc1ccccc1-c1nnc([S][Ag]([PH](c2ccccc2)(c2ccccc2)c2ccccc2)([PH](c2ccccc2)(c2ccccc2)c2ccccc2)[PH](c2ccccc2)(c2ccccc2)c2ccccc2)o1`
3.6

----------
Target: lipoxygenase (LOX) (Glycine max, UniProt P08170)
Sequence (P08170 whole entry): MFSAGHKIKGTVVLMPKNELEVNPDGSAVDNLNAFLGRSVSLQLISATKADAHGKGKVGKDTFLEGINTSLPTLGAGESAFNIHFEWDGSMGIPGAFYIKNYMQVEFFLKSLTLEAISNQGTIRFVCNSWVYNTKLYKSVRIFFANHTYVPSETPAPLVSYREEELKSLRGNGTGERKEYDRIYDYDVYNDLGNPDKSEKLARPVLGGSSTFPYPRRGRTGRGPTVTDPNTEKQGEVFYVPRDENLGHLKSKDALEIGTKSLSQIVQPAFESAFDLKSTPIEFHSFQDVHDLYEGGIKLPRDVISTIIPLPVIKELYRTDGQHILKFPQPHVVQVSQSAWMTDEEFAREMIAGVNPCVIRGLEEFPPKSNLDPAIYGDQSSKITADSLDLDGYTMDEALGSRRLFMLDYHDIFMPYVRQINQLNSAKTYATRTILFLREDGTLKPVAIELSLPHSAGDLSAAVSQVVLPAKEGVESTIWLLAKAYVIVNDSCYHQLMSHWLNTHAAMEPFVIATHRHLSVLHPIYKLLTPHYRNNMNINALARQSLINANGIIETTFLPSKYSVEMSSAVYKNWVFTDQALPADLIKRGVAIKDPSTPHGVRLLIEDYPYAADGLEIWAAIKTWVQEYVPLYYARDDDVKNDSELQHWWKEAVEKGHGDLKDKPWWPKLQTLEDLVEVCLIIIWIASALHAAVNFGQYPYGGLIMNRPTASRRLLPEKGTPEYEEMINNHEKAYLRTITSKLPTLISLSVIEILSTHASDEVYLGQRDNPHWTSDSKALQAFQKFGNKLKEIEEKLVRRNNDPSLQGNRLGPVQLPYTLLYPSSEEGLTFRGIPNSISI
Test: Inhibition of linoleic acid peroxidation by LOX
Type: biochemical
Conditions: linoleic acid 0.3 mM, borate buffer pH 9; read-out: IC50 against LOX
The following molecules are shown together with reported IC50 values.
Don't forget the unit after the value.

Record request: IC50 value, item `Fc1ccc(-c2nnc([S][Ag]([PH](c3ccccc3)(c3ccccc3)c3ccccc3)([PH](c3ccccc3)(c3ccccc3)c3ccccc3)[PH](c3ccccc3)(c3ccccc3)c3ccccc3)o2)cc1`
6.8 µM

// query IC50 value for entry `Clc1cccc(-c2nnc([S][Ag]([PH](c3ccccc3)(c3ccccc3)c3ccccc3)([PH](c3ccccc3)(c3ccccc3)c3ccccc3)[PH](c3ccccc3)(c3ccccc3)c3ccccc3)o2)c1`
1.8 µM

// IC50 lookup, key: `Clc1ccccc1-c1nnc([S][Ag]([PH](c2ccccc2)(c2ccccc2)c2ccccc2)([PH](c2ccccc2)(c2ccccc2)c2ccccc2)[PH](c2ccccc2)(c2ccccc2)c2ccccc2)o1`
7.5 µM

// query IC50 value for entry `Fc1ccccc1-c1nnc([S][Ag]([PH](c2ccccc2)(c2ccccc2)c2ccccc2)([PH](c2ccccc2)(c2ccccc2)c2ccccc2)[PH](c2ccccc2)(c2ccccc2)c2ccccc2)o1`
7.3 µM

Fill in the blank: the reported IC50 of `c1ccc(-c2nnc([S][Ag]([PH](c3ccccc3)(c3ccccc3)c3ccccc3)([PH](c3ccccc3)(c3ccccc3)c3ccccc3)[PH](c3ccccc3)(c3ccccc3)c3ccccc3)o2)cc1` is ____.
2.5 µM

----------
# key: entry, value: IC50
Test system: normal human fetal lung fibroblast (MRC-5) cells
Test: SRB toxicity assay, MRC-5
Type: cell-based
Settings: Homo sapiens, MRC5, 48 h incubation

Some compounds with known IC50 results, for comparison:
# Substance Smiles, Test Target, Observation Type, Readout Value
rows = [
    ("S=c1[nH]nc(-c2ccccc2)o1", "normal human fetal lung fibroblast (MRC-5) cells", "IC50", "> 30 µM"),
    ("Fc1ccccc1-c1nnc(S)o1", "normal human fetal lung fibroblast (MRC-5) cells", "IC50", "> 30 µM"),
    ("Fc1ccc(-c2nnc(S)o2)cc1", "normal human fetal lung fibroblast (MRC-5) cells", "IC50", "> 30 µM"),
    ("Sc1nnc(-c2ccccc2Cl)o1", "normal human fetal lung fibroblast (MRC-5) cells", "IC50", "> 30 µM"),
]

Consider the record given below.
Can you look up the measured IC50 of `Sc1nnc(-c2cccc(Cl)c2)o1` for me?
> 30 µM

Values compiled from paper PMC12239085.
